target_desc: matriptase (Homo sapiens, UniProt Q9Y5Y6)
Construct: purchased R&D Systems 3946-SEB-010
Sequence (Q9Y5Y6 615-855 limits assumed): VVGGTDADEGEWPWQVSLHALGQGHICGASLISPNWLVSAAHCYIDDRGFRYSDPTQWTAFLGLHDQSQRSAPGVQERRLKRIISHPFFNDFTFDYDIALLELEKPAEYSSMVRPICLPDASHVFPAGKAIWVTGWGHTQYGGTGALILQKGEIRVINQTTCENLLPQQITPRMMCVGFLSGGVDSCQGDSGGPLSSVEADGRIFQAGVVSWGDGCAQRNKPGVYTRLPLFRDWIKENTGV
assay_method_text: Fluorogenic kinetic enzyme inhibitor assay, matriptase
Format: biochemical
Recorded measurements of IC50, one per entry
Numeric only. Scale: nM

Query for matriptase (Homo sapiens, UniProt Q9Y5Y6): what IC50 does the record show for C=CCOC(=O)CC[C@H](NC(=O)[C@@H]1CC2CCCCC2N1C(C)=O)C(=O)N[C@@H](Cc1ccc(F)cc1)C(=O)N[C@@H](CCCNC(=N)N)C(=O)c1nc2ccccc2s1 (stereo partly drawn) [MF1068] ? 0.375

Query for matriptase (Homo sapiens, UniProt Q9Y5Y6): what IC50 does the record show for CCC(C)[C@H](NC(C)=O)C(=O)N[C@@H](CCSC)C(=O)N[C@@H](Cc1ccccc1)C(=O)N[C@@H](CCCNC(=N)N)C(=O)c1nc2ccccc2s1 (stereo partly drawn) [MM4027-2] ? 0.51

Query for matriptase (Homo sapiens, UniProt Q9Y5Y6): what IC50 does the record show for CC(=O)N[C@H]1CCCCn2cc(nn2)C[C@H](C(=O)N[C@H](CCCNC(=N)N)C(=O)c2nc3ccccc3s2)NC(=O)[C@H](CC(C)C)NC1=O [VD4118A] ? 19.6
